Below, each entry is listed alongside its reported viability at 1 µM.
Test: Cytotoxicity against mouse RAW264.7 cells assessed as cell proliferation at 1 uM
Format: cell-based
Settings: read-out: Activity
endpoint label: viability at 1 µM (%)

| molecule | endpoint label | observed |
| --- | --- | --- |
| COc1cc(/C=C/C(=O)NC(C)=O)cc(OC)c1OC | viability at 1 µM | 104 |
| COc1cc(/C=C/C(=O)N2CCCCC2=O)cc(OC)c1OC | viability at 1 µM | 107 |
| COc1cc(/C=C/C(=O)N2CCC=CC2=O)cc(OC)c1OC [PIPLARTINE] | viability at 1 µM | 115 |
| CCC(=O)NC(=O)/C=C/c1cc(OC)c(OC)c(OC)c1 | viability at 1 µM | 97 |
| COc1cc(/C=C/C(=O)N2CCC2=O)cc(OC)c1OC | viability at 1 µM | 97 |
| COc1cc(/C=C/C(=O)N2CCCC2=O)cc(OC)c1OC | viability at 1 µM | 105 |

----------
Test system: RAW264.7
Assay: Antiinflammatory activity in mouse RAW264.7 cells assessed as inhibition of LPS-induced NO production at 1 uM
Format: functional

| chemical string | value units | inhibition at 1 µM |
| --- | --- | --- |
| COc1cc(/C=C/C(=O)NC(C)=O)cc(OC)c1OC | % | -1 |
| COc1cc(/C=C/C(=O)N2CCC2=O)cc(OC)c1OC | % | 1 |
| COc1cc(/C=C/C(=O)N2CCCCC2=O)cc(OC)c1OC | % | 1 |
| COc1cc(/C=C/C(=O)N2CCC=CC2=O)cc(OC)c1OC | % | 11 |
| COc1cc(/C=C/C(=O)N2CCCC2=O)cc(OC)c1OC | % | 1 |
| CCC(=O)NC(=O)/C=C/c1cc(OC)c(OC)c(OC)c1 | % | -1 |

----------
Tested on: RAW264.7
Assay: Antiinflammatory activity in mouse RAW264.7 cells assessed as inhibition of LPS-induced NO production at 10 uM
Format: functional
A collection of molecules and their measured inhibition at 10 µM
endpoint label: inhibition at 10 µM (%)

| chemical string | observed |
| --- | --- |
| COc1cc(/C=C/C(=O)N2CCCC2=O)cc(OC)c1OC | 28 |
| COc1cc(/C=C/C(=O)N2CCCCC2=O)cc(OC)c1OC | 46 |
| COc1cc(/C=C/C(=O)N2CCC2=O)cc(OC)c1OC | 22 |
| COc1cc(/C=C/C(=O)NC(C)=O)cc(OC)c1OC | 16 |
| COc1cc(/C=C/C(=O)N2CCC=CC2=O)cc(OC)c1OC | 91 |
| CCC(=O)NC(=O)/C=C/c1cc(OC)c(OC)c(OC)c1 | 16 |

----------
Experiment: Cytotoxicity against mouse RAW264.7 cells assessed as cell proliferation at 10 uM
Type: cell-based
Details: read-out: Activity

| chemical string | viability at 10 µM / % |
| --- | --- |
| COc1cc(/C=C/C(=O)N2CCC=CC2=O)cc(OC)c1OC | 77 |
| COc1cc(/C=C/C(=O)N2CCCCC2=O)cc(OC)c1OC | 101 |
| COc1cc(/C=C/C(=O)N2CCC2=O)cc(OC)c1OC | 92 |
| COc1cc(/C=C/C(=O)N2CCCC2=O)cc(OC)c1OC | 102 |
| CCC(=O)NC(=O)/C=C/c1cc(OC)c(OC)c(OC)c1 | 103 |
| COc1cc(/C=C/C(=O)NC(C)=O)cc(OC)c1OC | 104 |
